Recorded folding stability dG for the following variants
B1: EHEE_rd3_0053 (parent)
chain: TYTFKVDNKDQAKKAAKWAKKLGLSFQIEKHGDTFKITVQ

Variants of: B1
assay overview: folding stability dG (cDNA display proteolysis); higher = more stable
run conditions: PBS, room temperature
readout: folding stability dG (kcal/mol)

• Y2K = 1.59
• K14A = 2.62
• K30Q = 2.48
• N8Q = 1.47
• T34G = 3.12
• K17M = 2.52
• K14H = 2.06
• A12F = 1.36
• D10A = 2.83
• L24E = -0.483
• D10V = 2.52
• Q27G = 1.53
• K20G = 1.54
• Q40M = 2.6
• A19R = -0.112
• D7L = 2.4
• K17D = 2.16
• D33G = 2.23
• T38W = 1.76
• K14P = -0.126
• K13P = -0.412
• Q11Y = 1.74
• K13I = 2.49
• F35R = 0.294
• W18Q = 1.17
• I37W = 0.115
• D10I = 2.62
• Y2S = 1.18
• N8W = 1.24
• G32E = 2.03
